Origin of measurements: patent US9994594B2

studyTarget: arginase II (ARG II) (Homo sapiens, UniProt P78540)
Sequence (P78540 23-354): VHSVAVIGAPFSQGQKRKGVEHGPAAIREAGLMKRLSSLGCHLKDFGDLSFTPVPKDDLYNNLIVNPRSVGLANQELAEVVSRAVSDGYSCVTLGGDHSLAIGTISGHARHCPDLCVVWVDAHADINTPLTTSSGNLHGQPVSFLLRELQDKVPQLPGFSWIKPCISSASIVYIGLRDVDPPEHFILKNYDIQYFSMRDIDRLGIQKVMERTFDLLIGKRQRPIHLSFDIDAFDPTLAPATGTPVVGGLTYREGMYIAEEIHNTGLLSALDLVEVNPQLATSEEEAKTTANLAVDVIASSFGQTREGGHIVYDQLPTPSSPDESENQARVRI
procedureSummary: Inhibition of arginase II, spectrophotometric urea assay at 530 nm
Assay type: biochemical
experimentalConditions: Formula I compounds, Table 2; read-out: Potency (ARG II)
pIC50: −log10 of the molar value. Structures can show the parent of a compound that is named as a salt.
Provide the recorded pIC50 for the entries that follow.

Query: Give measured pIC50 for NC(CCCCB(O)O)(CCN1CCC(Cc2ccc(F)cc2)CC1)C(=O)O (centres unmarked) [compound 127, dihydrochloride] (arginase II (ARG II) (Homo sapiens, UniProt P78540)).
Result: 6.00 to 6.60

Query: Tell me pIC50 of O=C(O)C1(CCCCB(O)O)CCCN1 (centres unmarked) [compound 103, hydrochloride] when tested on arginase II (ARG II) (Homo sapiens, UniProt P78540).
Result: < 5.30

Query: State recorded pIC50 with arginase II (ARG II) (Homo sapiens, UniProt P78540), entry CNC(CCCCB(O)O)(CCCNCc1ccc(Cl)c(Cl)c1)C(=O)O (centres unmarked) [compound 136, dihydrochloride] , no comment.
Result: 6.60 to 10.00

Query: Provide the reported pIC50 (system: arginase II (ARG II) (Homo sapiens, UniProt P78540)) for NC(CCCCB(O)O)(CC1CNC1)C(=O)O (centres unmarked) [compound 123, dihydrochloride]
Result: < 5.30

Query: # return pIC50 of CN(C)C(=O)[C@@H]1CCCN1CCC(N)(CCCCB(O)O)C(=O)O (some centres unmarked) [compound 54, dihydrochloride] (system: arginase II (ARG II) (Homo sapiens, UniProt P78540))
Result: < 5.30

Query: Give measured pIC50 for NC(CCCCB(O)O)(CCNC1CCCC1)C(=O)O (centres unmarked) [compound 72, dihydrochloride] (arginase II (ARG II) (Homo sapiens, UniProt P78540)).
Result: 6.00 to 6.60

Query: Lab note: arginase II (ARG II) (Homo sapiens, UniProt P78540) assay, enter pIC50 for NC(CCCCB(O)O)(CCOc1cccc(C(F)(F)F)c1)C(=O)O (centres unmarked) [compound 95, hydrochloride] here
Result: 5.30 to 5.70

Query: # return pIC50 for NC(CCCCB(O)O)(CCN1CCC1)C(=O)O (centres unmarked) [compound 75, dihydrochloride] , test system: arginase II (ARG II) (Homo sapiens, UniProt P78540)
Result: 5.70 to 6.00

Query: Provide the reported pIC50 (system: arginase II (ARG II) (Homo sapiens, UniProt P78540)) for CN(CCC(N)(CCCCB(O)O)C(=O)O)CC(O)c1ccccc1 (centres unmarked) [compound 78, dihydrochloride]
Result: 5.30 to 5.70

Query: Identify measured pIC50 obtained with arginase II (ARG II) (Homo sapiens, UniProt P78540) for CC(C)(C)NCCC(N)(CCCCB(O)O)C(=O)O (centres unmarked) [compound 67, dihydrochloride] .
Result: 6.00 to 6.60

Query: Give pIC50 for this entry on arginase II (ARG II) (Homo sapiens, UniProt P78540): CC(C)CC(N)(CCCCB(O)O)C(=O)O (centres unmarked) [compound 104, hydrochloride]
Result: < 5.30

Query: For arginase II (ARG II) (Homo sapiens, UniProt P78540), give the measured pIC50 of the entry CC(C)CC(CO)NCC(N)(CCCCB(O)O)C(=O)O (centres unmarked) [compound 88, dihydrochloride]
Result: 5.70 to 6.00

Query: Please report the measured pIC50 for NC(CCCCB(O)O)(CCN1CCc2sccc2C1)C(=O)O (centres unmarked) [compound 29, dihydrochloride] tested on arginase II (ARG II) (Homo sapiens, UniProt P78540).
Result: 5.70 to 6.00

Query: Lab note: arginase II (ARG II) (Homo sapiens, UniProt P78540) assay, enter pIC50 for CNC(CCCCB(O)O)(CCN1CCCCC1)C(=O)O (centres unmarked) [compound 149] here
Result: 6.60 to 10.00

Query: Give reported pIC50 for COc1ccccc1N1CCN(CCC(N)(CCCCB(O)O)C(=O)O)CC1 (centres unmarked) [compound 50, dihydrochloride] (arginase II (ARG II) (Homo sapiens, UniProt P78540))
Result: < 5.30

Query: Provide pIC50, recorded with arginase II (ARG II) (Homo sapiens, UniProt P78540), of NC(CCCCB(O)O)(CN1CCCCC1)C(=O)O (centres unmarked) [compound 79]
Result: < 5.30

Query: Write pIC50 of NC(CCCCB(O)O)(Cc1cnc[nH]1)C(=O)O (centres unmarked) [compound 102, dihydrochloride] ; system used: arginase II (ARG II) (Homo sapiens, UniProt P78540)
Result: 5.30 to 5.70
